tested on: RARa homodimer (NR concentration 270 nM); experiment: PBM binding z-score (relative to random genomic background probes); higher = stronger binding; sequences stand for … in GC…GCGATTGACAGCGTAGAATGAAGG
Classification field: Criterion met = PBM binding z-score at or over 0.02; Criterion not met = PBM binding z-score under 0.02.

1. ATATGTAGGTTAGGGCCATTCAGAAAGTAGGGAA = Criterion met
2. TAGCCTAGGTCAGATCGGGGCAGTATACGCTATA = Criterion not met
3. CCTTACGGGTCTCTCCAGGTTATAGCATCGGAGT = Criterion met
4. ATATGTAGTTTAGGGTCATTCAGAAAGTAGGGAA = Criterion met
5. ATCAAAAGGTCGAAGGTGAGTATACCCACCCGAA = Criterion met
6. CCGAGTAGGTTACGTGGGGGCATTCAGTGCGAAT = Criterion met
7. CGAACTAGTTCAAGGACAGTGAATCTCCGCACGC = Criterion not met

====

Measured PBM binding z-score by item
test system: VDR:RXRa (NR concentration 270 nM, RXRa partner concentration 90 nM); assay: PBM binding z-score (relative to random genomic background probes); higher = stronger binding; sequences stand for … in GC…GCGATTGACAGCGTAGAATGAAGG
Measurement Type: PBM binding z-score

1) CGGACTAGGTCAAAGGACAGTGAAAGGCGACGTA = 1.16
2) TCGAGTAGGTTTCGGGGGCATTCAGGGATGAAGA = 2.7
3) ATATGTTGGTTAGGGTCATTCAGAAAGTAGGGAA = 4.37
4) TGAATGAGGTGAAAGATCAGGGAACGTGGCGTCG = 0.449
5) ATATGTAGGTTAGGGTCTTTCAGAAAGTAGGGAA = 0.666
6) CCTTACGGGTCAAGGTTATCGCACGGGTGGTACG = 3.69
7) ACTAGTTGGTCAGCTGAGGTCACACACAATTCGG = 4.67
8) CCTTACGGGTCACTGACAGGTCATAGCATTTGGA = 5.38
9) CGAACTAGGCCACCAGGACAGTGAAGAGGTTGGA = -0.817
10) ATGGAAAGGTCGTGAGGTGAGTATACAGAAAGGC = 4
11) TCGAGTAGGTTACGGGGGCCTTCAGGGATGAAGA = 2.11
12) TCGAGTAGATTACGGGGGCATTCAGGGATGAAGA = 2.83
13) CCTTACGGGTCACTCAAGGTTATAGCATCGGAGT = 5.32
14) CGTCCAAGCTCAGCAGGTCAGTGAAAGCGACGTG = -0.352
15) CTATGTAGGTTAAGGGGGTCATTCTGTTTGAAAG = 7.27
16) CTATGTAGGTGAAGGGGGTCATTCAGTTTGAAAG = 7.13
17) CCGAGTAAGTTACGAGGGGGCATTCAGTGCGAAT = 3.83
18) TCGATTAGGTTACGGGGGCATTCAGGGATGAAGA = 4.31
19) CGTCTAAGGTCAAAGGTCAGTGAAGAGATGACGG = 6.78
20) ATATGTAGGTTAGGGTCATTTAGAAAGTAGGGAA = 4.26
21) CAAACTAGGTCACAGGGGTCAAAGTCCGTGCGTA = 8.24
22) TCTAGGAGGACACGAAGGTCAGAGCTTTCCAGAG = 2.25
23) TTTCCAAGGTGAAAGGTCGTTGATGCACGCCTTG = 3.38
24) CCGAGTAGGTTACGAGGGGGCGTTCAGTGCGAAT = 4.72
25) ATATGTAGGTTAGCGGGGGTCATTCAGACTAGGC = 6.4
26) TATACAGGGTCTAAGGCCAGAGTACGAATGTCGA = 0.486
27) ATACGTAGGTTACATCCGGGTCATTCAGGCTATG = 4.16
28) AGTCAAATTTCACTAGGTAACGTAAGATTCAGCT = 0.337
29) CGTCAACGTTCAACTAAGGTAACGTAAAGCACGC = 0.25
30) TAGAGTAGGTTACGGGGGCATTCAGGGATGAAGA = 4.09
31) TCGAGTAGCTTACGGGGGCATTCAGGGATGAAGA = 2.45
32) TGAATGACGTTAAAGATCAGGGAACGTGGCGTCG = -0.237
33) CGTCCAAGGTCCATGCTAGGTCAGTGAAAGCATT = 0.731
34) CCGAGTAGGTTACGAGTGGGCATTCAGTGCGAAT = -0.217
35) CGAACTAGATCAAAGGACAGTGAAAGGCGACGTA = -0.333
36) CCTACTGGGCCAAAAAGGCCATTGATGCCGATAA = 0.326
37) CCTACTGGGCCAATAAGGTCATTGATGCCGATAA = 5.29
38) CCGACTGGGGCAAAGGTTACCATGCTCAGTACGA = 1.64
39) TCATATAGGTGAAAGGTGAAAGTCGGTGTGGTAA = 2.12
40) GCTAGTTGGTCAGTAAATGGTCACACACCGGTCG = -0.166

====

test system: PPARg:RXRa (NR concentration 180 nM, RXRa partner concentration 90 nM); assay: PBM binding z-score (relative to random genomic background probes); higher = stronger binding; sequences stand for … in GC…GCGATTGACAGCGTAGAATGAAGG
Measured PBM binding z-score by item
Measurement Type: PBM binding z-score

1) ATATGTAGCTTAGGGTCATTCAGAAAGTAGGGAA = 2.42
2) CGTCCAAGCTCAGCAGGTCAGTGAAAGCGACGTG = -0.464
3) TTGAGTAGGTTACGGGGGCATTCAGGGATGAAGA = 7.11
4) AGAACGAGGGCAATGAGTTCATAGCACGGGTGGC = 2.16
5) CCGGGTAGGTTACGAGGGGGCATTCAGTGCGAAT = 1.6
6) TCGAGTAGGTTACGGGCGCATTCAGGGATGAAGA = 1.17
7) GCTGCTAGGTCAACTGAGGGTCAGCTAAAGCTCG = 3.55
8) ATCGAAAGGTCGACGAGTTGAGTATACACCGTTT = 2.27

====

Listed below: PBM binding z-score values for each entry.
tested on: RARa homodimer (NR concentration 270 nM); assay: PBM binding z-score (relative to random genomic background probes); higher = stronger binding; sequences stand for … in GC…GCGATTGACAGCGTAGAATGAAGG
Measurement Type: PBM binding z-score

1. GCTTACGGGTCAAAGGTTATGGCATGAATAGAAT = 1.41
2. ATATGTAGGTTAGCGTCATTCAGAAAGTAGGGAA = 0.244
3. CGAACTAGGTCACCATGACAGTGAAGAGGTTGGA = 0.707
4. CTATGTAGGTTAAGGTGGTCATTCAGTTTGAAAG = 0.483
5. TAGCCTAGGTCATTCAGGGGCCAGTATGGAAAGC = 0.0659
6. AGAATGGGGTTAAGATCAGGGAAACAGAATACAT = 1.79
7. CGGCCAAGGTCAAAGGTCAGTGAAGAGATGACGG = 4.91
8. CTGTGTAGGTTAAGGGGGTCATTCAGTTTGAAAG = 2.01
9. CCTACTGGGCCAATGTCATTGATCAGTCAAAGCA = -1.11
10. CTATGTAGGTTAAGGGGGTCATTCACTTTGAAAG = 1.84
11. CCGAGTAGGTTACGAGGGGGCATTAAGTGCGAAT = 0.983
12. CGAACTTGGTCACCAGGACAGTGAAGAGGTTGGA = -0.448
13. CCTACTGGGCCGAGGTCATTGATCAGTCAAAGCA = -0.11
14. CAAACTAGGTCACGAGGTCAAAGTCCGCTTCCCG = 1.34
15. CCGAGTAGGTTACGGGGGGGCATTCAGTGCGAAT = 2.21
16. CTATGTAGGTTAAGAGGGTCATTCAGTTTGAAAG = 0.734
17. TTACCAAGGTCAGCTGAGGTCGTTGATCCAACTC = 0.314
18. GATACAGGGTGAGCTAGAGGCCAGAGTATGGAAA = -0.483
19. CGAACAAGGTCAAAGGACAGTGAAAGGCGACGTA = 0.893
20. ATCCAAAGGTCGAGGTGAGTATAGAGAAAGGGAA = 1.18
21. CGAACTAGGTCAAAGGACAGAGAAAGGCGACGTA = 0.114
22. CAAGCTAGGTCAAAGGTCAAAGTCGAGCCAACCA = 2.23
23. CCTTACGGGTCAAGGTTATATCACGGGTGGTACG = 0.89
24. CGAACTAGGTCACCAGGACAGTTAAGAGGTTGGA = 0.481
25. CCGAGTAGGCTACGAGGGGGCATTCAGTGCGAAT = -0.663
26. CCTACTGGGCCAAGCTCATTGATCAGTCAAAGCA = -1.2
27. TCGAGGAGGTTACGGGGGCATTCAGGGATGAAGA = 0.971
28. GCTCGGAGGACAAGGTCACAGCTTTGTCCGTAGA = 0.243
29. ATATGTAGGATATCGGGTCATTCAGTTTGCGCAT = 1.03
30. CCTTCTGGGCCATTCAGAGGTCATTGATCATATG = 0.112
31. TCATATAGGTGAAAGGTGAAAGTCGGTGTGGTAA = 1.1
32. TCATATAGGTAAAAGGTCAAAGTCGGTGTGGTAA = 4.73
33. TCTCGGAGGACACGAAAAGTCAGAGCTCGACATC = -0.037
